- RUN_DESCRIPTION: Pharmacokinetic study in rats after single i.v. or i.p. tianeptine, non-compartmental analysis
- CONDITION_SUMMARY: male, Wistar, rat, in vivo, ip, 10 mg/kg
Where a name gives a salt, the structure may show the parent alone.
QUANTITY_MEASURED: k el (s⁻¹)
The answer is to be given in s⁻¹; state only the numeric part.

Problem: Give the measured k el of CN1c2ccccc2C(NCCCCC(=O)O)c2ccc(Cl)cc2S1(=O)=O (stereo not shown) [MC5, tianeptine metabolite MC5 sodium salt] .
Solution: 5.19e-05

----------
- RUN_DESCRIPTION: Pharmacokinetic study in rats after single i.v. or i.p. tianeptine, non-compartmental analysis
- CONDITION_SUMMARY: male, Wistar, rat, in vivo, ip, 10 mg/kg
Where a name gives a salt, the structure may show the parent alone.
QUANTITY_MEASURED: Tmax (min)
The answer is to be given in min; state only the numeric part.

Problem: Give the measured Tmax of CN1c2ccccc2C(NCCCCC(=O)O)c2ccc(Cl)cc2S1(=O)=O (stereo not shown) [MC5, tianeptine metabolite MC5 sodium salt] .
Solution: 30
